experiment: NOVARTIS: Cytotoxicity against human hepatocellular carcinoma cell line (Huh7); type: toxicity, cell-based, Huh-7; details: Huh7 cells (hepatocellular carcinoma cell line)
Measured attribute: CC50

{"Compound": "O=C(NC(c1ccccc1)c1ccccc1)N(Cc1ccccc1)CC(O)CN(CCN1CCOCC1)S(=O)(=O)Cc1ccccc1 (stereo unspecified)", "CC50": "> 6.82 µM"}
{"Compound": "Cc1ccc(C=Cc2ccc(N(C)C)cc2)[n+](C)c1", "CC50": "> 60.5 µM"}
{"Compound": "CCN(CC)S(=O)(=O)c1ccc(-c2csc(=Nc3cccc4ccccc34)n2C)cc1", "CC50": "> 10 µM"}
{"Compound": "COc1ccc(C=C2N=C(c3ccc(Cl)cc3)N(c3cc(Cl)ccc3C)C2=O)cc1OC", "CC50": "> 100 µM"}
{"Compound": "COC(=O)C1=C(C)NC2=C(C(=O)CC(c3ccccc3)C2)C1c1cc(C)sc1SC (stereo unspecified)", "CC50": "> 100 µM"}
{"Compound": "COc1ccc(C2C(C(=O)O)c3ccccc3C(=O)N2c2ccc(C)cc2)cc1OC (stereo unspecified)", "CC50": "> 10 µM"}
{"Compound": "CCOC(=O)C1=C(C)NC2=C(C(=O)CCC2)C1c1cc(Br)c(O)c(OCC)c1 (stereo unspecified)", "CC50": "> 10 µM"}
{"Compound": "CCCOc1ccc(C(=O)Nc2cccc(-c3nc4ncccc4o3)c2)cc1", "CC50": "> 10 µM"}

Hello, I would appreciate it if you could give CC50 for each entry below.
1. CCOC(=O)c1c(CNC)n(C)c2cc(Br)c(O)cc12
2. Cc1cc(C(=O)N2CCOc3c(cc(-c4csc5ccccc45)cc3OCCc3ccccn3)C2)n(C)n1
3. CC1=C(C(=O)Nc2ccc(C)cc2C)C(c2cc(Br)ccc2F)n2ncc(C(=O)Nc3ccc(C)cc3)c2N1 (stereo unspecified)
4. CCCc1ccc(C(=O)NC(=O)c2ccccc2O)cc1
5. COc1ccc(OCCNC(=O)c2ccccc2Cl)cc1

Output:
1: > 100 µM; 2: 46.9 µM; 3: > 100 µM; 4: 16.5 µM; 5: > 10 µM

----------
test system: Huh-7; assay: NOVARTIS: Cytotoxicity against human hepatocellular carcinoma cell line (Huh7); format: toxicity, cell-based; details: huh-7, read-out: CC50
Hi there, I'd appreciate the recorded CC50 for every entry that follows.

Batch request: CC50 for each of the following molecules.
1. C[n+]1c(C=CNc2ccccc2)n(-c2ccccc2)c2ccc(Cl)cc21
2. CC1=C(C=CC(C)C=NNC(=O)c2ccncc2)C(C)(C)CCC1 (stereo not drawn)
3. Cc1[nH]c2ccccc2c1/C=C/c1cc[n+](C)cc1
4. CCN1/C(=C/c2ccc3ccccc3[n+]2CC)Sc2cc(NC(C)=O)ccc21
5. CCN1C=C/C(=C\c2cccc[n+]2C)c2ccccc21
6. CCN1C(=Cc2sc3ccc(Cl)cc3[n+]2CC)C=Cc2cc(OC)ccc21

Output:
1. 23.8 µM
2. > 100 µM
3. > 100 µM
4. > 100 µM
5. > 100 µM
6. 11.9 µM

Below are some molecules; for each one, tell me its CC50.
1. C[n+]1ccc(C=Cc2ccc(O)cc2)cc1
2. CN1/C(=C/c2cccc[n+]2C)C=Cc2ccccc21
3. CCN1C(=Cc2sc3ccccc3[n+]2C)C=Cc2ccc(C)cc21
4. CCn1c(C=CN(C(C)=O)c2ccccc2)[n+](CC)c2cc(Cl)ccc21
5. CCN1/C(=C\C=C\c2n(CC)c3ccc(C#N)cc3[n+]2CC)Oc2ccc(-c3ccccc3)cc21
6. CN(C)c1ccc(C=CC=Cc2cccc[n+]2C)cc1.[O-][Cl+3]([O-])([O-])[O-]

Output:
> 10 µM
> 100 µM
11.4 µM
> 100 µM
> 10 µM
> 100 µM
